Test: in vitro
Settings: rat, plasma
Where no end group is shown, it is not given here.
Value kind: half-life at 10 µg/mL (h)
Give the number; h is assumed, so skip it.

Entry NWYVKKCLNDVGICKKKCKPEEMHVKNGWAMCGKQRDCCVPAD (cysteines drawn unpaired) [DEFB126] , half-life at 10 µg/mL reported as 5.41
